- protocol.text: Bioavailability test: pharmacokinetic study of TBN (API) and enteric-coated tablets in beagle dogs
- Format: in vivo
- run.conditions: beagle, dog, blood, po, 175 mg, oral gavage, Average of 3 animals, read-out: MRT (0-t)
assay.readout: MRT last

[[record]]
molecule_smiles = "Cc1nc(C)c(/C=[N+](\\[O-])C(C)(C)C)nc1C"
result = "49.8 min"


----------
- protocol.text: Pharmacokinetic study of TBN enteric-coated tablets (Example 25 method) and intravenous TBN in beagle dogs
- Assay type: in vivo
- run.conditions: both sexes, dog, blood; beagle dogs, intravenous 6 mg · kg^−1, Mean; read-out: MRT0-inf
assay.readout: MRT inf (min)

[[record]]
compound = "Cc1nc(C)c(/C=[N+](\\[O-])C(C)(C)C)nc1C [TBN]"
assay_readout = "MRT inf"
unit_string = "min"
recorded_number = 17.9

